- assay.summary: Plasma concentration of active ingredient in patients, measured by HPLC (Example 3)
- Format: in vivo, human
- recorded.conditions: human, plasma, po, 2 mg, after 4 hours from a single dose of 2.0 mg; lowest concentration list
quantity: concentration at 4 h (ng/mL)
Numbers only, in ng/mL.

Can you share its concentration at 4 h? I mean this compound: CC1(C)CCC(C)(C)c2cc(NC(=O)c3ccc(C(=O)O)cc3)ccc21 8.98

---

- assay.summary: Plasma concentration of active ingredient in patients, measured by HPLC (Example 3)
- Assay type: in vivo, human
- recorded.conditions: human, plasma, po, 6 mg, after 10 hours from a single dose of 6.0 mg; lowest concentration list
quantity: concentration at 10 h (ng/mL)
One number for each entry, in ng/mL.

Reported concentration at 10 h for CC1(C)CCC(C)(C)c2cc(NC(=O)c3ccc(C(=O)O)cc3)ccc21 [tamibarotene] : what is it? 7.72

---

- assay.summary: Plasma concentration of active ingredient in patients, measured by HPLC (Example 3)
- Type: in vivo, human
- recorded.conditions: human, plasma, po, 10 mg, after 4 hours from repeated doses (58 days) of 10.0 mg; highest concentration list
quantity: concentration at 4 h (ng/mL)
Answers are plain numbers, in ng/mL.

For CC1(C)CCC(C)(C)c2cc(NC(=O)c3ccc(C(=O)O)cc3)ccc21 [tamibarotene] , what is its reported concentration at 4 h? 88.7

---

- assay.summary: Plasma concentration of active ingredient in patients, measured by HPLC (Example 3)
- Format: in vivo, human
- recorded.conditions: human, plasma, po, 10 mg, after 4 hours from repeated doses (36 days) of 10.0 mg; highest concentration list
quantity: concentration at 4 h (ng/mL)
Give bare numbers, in ng/mL.

Would you kindly share the measured concentration at 4 h for CC1(C)CCC(C)(C)c2cc(NC(=O)c3ccc(C(=O)O)cc3)ccc21 ? 161

---

- assay.summary: Plasma concentration of active ingredient in patients, measured by HPLC (Example 3)
- Assay type: in vivo, human
- recorded.conditions: human, plasma, po, 10 mg, after 2 hours from repeated doses (58 days) of 10.0 mg; highest concentration list
quantity: concentration at 2 h (ng/mL)
Numbers only, in ng/mL.

If you can, please state the reported concentration at 2 h value of CC1(C)CCC(C)(C)c2cc(NC(=O)c3ccc(C(=O)O)cc3)ccc21 . 199

---

- assay.summary: Plasma concentration of active ingredient in patients, measured by HPLC (Example 3)
- Format: in vivo, human
- recorded.conditions: human, plasma, po, 4 mg, after 10 hours from a single dose of 4.0 mg; lowest concentration list
quantity: concentration at 10 h (ng/mL)
Numbers only, in ng/mL.

Query: concentration at 10 h; subject: CC1(C)CCC(C)(C)c2cc(NC(=O)c3ccc(C(=O)O)cc3)ccc21 [tamibarotene] 9.56

---

- assay.summary: Plasma concentration of active ingredient in patients, measured by HPLC (Example 3)
- Assay type: in vivo, human
- recorded.conditions: human, plasma, po, 6 mg, after 4 hours from a single dose of 6.0 mg; highest concentration list
quantity: concentration at 4 h (ng/mL)
Answers are plain numbers, in ng/mL.

Returns the measured concentration at 4 h for the input compound. Input: CC1(C)CCC(C)(C)c2cc(NC(=O)c3ccc(C(=O)O)cc3)ccc21 80.2

---

- assay.summary: Plasma concentration of active ingredient in patients, measured by HPLC (Example 3)
- Type: in vivo, human
- recorded.conditions: human, plasma, po, 10 mg, after 4 hours from repeated doses (59 days) of 10.0 mg; highest concentration list
quantity: concentration at 4 h

Entry under review: CC1(C)CCC(C)(C)c2cc(NC(=O)c3ccc(C(=O)O)cc3)ccc21 . Reported concentration at 4 h? 82.1 ng/mL

---

- assay.summary: Plasma concentration of active ingredient in patients, measured by HPLC (Example 3)
- Assay type: in vivo, human
- recorded.conditions: human, plasma, po, 8 mg, after 4 hours from repeated doses (35 days) of 8.0 mg; highest concentration list
quantity: concentration at 4 h (ng/mL)
One number for each entry, in ng/mL.

Can you share its concentration at 4 h? I mean this compound: CC1(C)CCC(C)(C)c2cc(NC(=O)c3ccc(C(=O)O)cc3)ccc21 84.6

---

- assay.summary: Plasma concentration of active ingredient in patients, measured by HPLC (Example 3)
- Type: in vivo, human
- recorded.conditions: human, plasma, po, 10 mg, after 2 hours from repeated doses (34 days) of 10.0 mg; highest concentration list
quantity: concentration at 2 h (ng/mL)
Numbers only, in ng/mL.

Name the recorded concentration at 2 h for CC1(C)CCC(C)(C)c2cc(NC(=O)c3ccc(C(=O)O)cc3)ccc21 . 88

---

- assay.summary: Plasma concentration of active ingredient in patients, measured by HPLC (Example 3)
- Type: in vivo, human
- recorded.conditions: human, plasma, po, 10 mg, after 8 hours from repeated doses (36 days) of 10.0 mg; highest concentration list
quantity: concentration at 8 h (ng/mL)
Give bare numbers, in ng/mL.

Quick check: concentration at 8 h of CC1(C)CCC(C)(C)c2cc(NC(=O)c3ccc(C(=O)O)cc3)ccc21 [tamibarotene] ? 112

---

- assay.summary: Plasma concentration of active ingredient in patients, measured by HPLC (Example 3)
- Assay type: in vivo, human
- recorded.conditions: human, plasma, po, 8 mg, after 4 hours from repeated doses (46 days) of 8.0 mg; highest concentration list
quantity: concentration at 4 h (ng/mL)
Give bare numbers, in ng/mL.

concentration at 4 h lookup needed for CC1(C)CCC(C)(C)c2cc(NC(=O)c3ccc(C(=O)O)cc3)ccc21 , thanks. 85.2

---

- assay.summary: Plasma concentration of active ingredient in patients, measured by HPLC (Example 3)
- Format: in vivo, human
- recorded.conditions: human, plasma, po, 2 mg, after 8 hours from a single dose of 2.0 mg; lowest concentration list
quantity: concentration at 8 h (ng/mL)
Numbers only, in ng/mL.

Fill blank: measured concentration at 8 h of the molecule CC1(C)CCC(C)(C)c2cc(NC(=O)c3ccc(C(=O)O)cc3)ccc21 [tamibarotene] is ____. 5.04
